Just for reference, ChEMBL document CHEMBL5223191 is where these values come from.

experiment: Volume of distribution at steady state in BALB/c mouse at 1 mg/kg, iv measured for 24 hrs by LC-MS/MS analysis; assay type: ADME, organism-based; settings: in vivo, read-out: Vdss
Measured property: Vd (L/kg)
Reply numerically in L/kg, unit not repeated.

Data request, read-out Vd, for CNc1nccc(Sc2cnc3[nH]c(N4CCC5(CC4)Cc4ccccc4[C@H]5N)nc3n2)c1Cl
1.8

====

Please respond with reported pEC50 for every item in the list.
test system: KYSE-520 cell line; experiment: Antiproliferative activity against EGFR-amplified human KYSE-520 cells assessed as inhibition of cell proliferation incubated for 72 hrs by CellTiter-Glo reagent based luminescence assay; type: functional; settings: KYSE-520, 72 h
// pEC50 is dimensionless: -log10 of concentration (M)

What value of pEC50 has been recorded for this entry: Nc1nccc(Sc2cnc3[nH]c(N4CCC5(CC4)Cc4ccccc4[C@H]5N)nc3n2)c1Cl
6.22

Entry CNc1nccc(Sc2cnc3[nH]c(N4CCC5(CC4)Cc4ccccc4[C@H]5N)nc3n2)c1Cl has what pEC50?
6.28

Please look up its pEC50: N[C@@H]1c2ccccc2CC12CCN(c1nc3nc(Sc4ccncc4Cl)cnc3[nH]1)CC2
6.49

Give the measured pEC50 of N[C@@H]1c2ccccc2CC12CCN(c1nc3nc(Sc4cccnc4C(F)(F)F)cnc3[nH]1)CC2 .
6.26

====

biological target: Voltage-gated inwardly rectifying potassium channel KCNH2 (Homo sapiens, UniProt Q12809)
Sequence (Q12809 whole entry): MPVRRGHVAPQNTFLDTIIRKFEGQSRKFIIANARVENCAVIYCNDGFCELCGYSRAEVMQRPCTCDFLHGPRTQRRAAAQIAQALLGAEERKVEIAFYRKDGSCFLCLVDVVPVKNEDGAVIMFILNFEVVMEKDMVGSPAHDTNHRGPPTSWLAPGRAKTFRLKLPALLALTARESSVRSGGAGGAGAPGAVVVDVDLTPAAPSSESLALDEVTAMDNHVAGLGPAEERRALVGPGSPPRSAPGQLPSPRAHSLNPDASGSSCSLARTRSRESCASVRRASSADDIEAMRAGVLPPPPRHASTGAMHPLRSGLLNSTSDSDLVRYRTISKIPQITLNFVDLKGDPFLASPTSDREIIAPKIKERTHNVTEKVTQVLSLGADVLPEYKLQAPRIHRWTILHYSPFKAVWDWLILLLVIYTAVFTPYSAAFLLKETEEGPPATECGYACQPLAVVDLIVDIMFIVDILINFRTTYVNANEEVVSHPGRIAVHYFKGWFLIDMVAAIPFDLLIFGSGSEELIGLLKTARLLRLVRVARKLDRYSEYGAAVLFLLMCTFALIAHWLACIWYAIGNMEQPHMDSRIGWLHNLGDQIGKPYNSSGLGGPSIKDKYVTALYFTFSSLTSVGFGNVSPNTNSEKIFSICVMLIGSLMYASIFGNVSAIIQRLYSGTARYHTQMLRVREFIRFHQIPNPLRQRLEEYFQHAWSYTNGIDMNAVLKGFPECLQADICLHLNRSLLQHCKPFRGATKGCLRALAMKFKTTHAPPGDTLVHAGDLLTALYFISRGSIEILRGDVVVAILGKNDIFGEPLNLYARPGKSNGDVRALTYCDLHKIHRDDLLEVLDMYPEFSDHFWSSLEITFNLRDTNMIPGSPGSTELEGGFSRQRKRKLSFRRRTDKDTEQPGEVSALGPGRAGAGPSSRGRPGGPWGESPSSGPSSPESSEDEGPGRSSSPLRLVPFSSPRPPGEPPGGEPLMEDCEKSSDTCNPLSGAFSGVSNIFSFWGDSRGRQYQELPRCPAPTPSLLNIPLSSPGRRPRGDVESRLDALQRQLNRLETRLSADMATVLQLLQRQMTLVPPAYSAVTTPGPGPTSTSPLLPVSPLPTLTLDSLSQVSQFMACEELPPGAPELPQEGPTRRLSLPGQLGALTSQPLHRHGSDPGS
Kindly supply the reported pIC50 values for the records listed here.
Expect pIC50 as a plain number equal to -log10 of the molar concentration.

I'd like to know its pIC50. The molecule in question is N[C@@H]1c2ccccc2CC12CCN(c1nc3nc(Sc4ccncc4Cl)cnc3[nH]1)CC2
5.51

// lookup pIC50 for Nc1nccc(Sc2cnc3[nH]c(N4CCC5(CC4)Cc4ccccc4[C@H]5N)nc3n2)c1Cl
6.05

Item CNc1nccc(Sc2cnc3[nH]c(N4CCC5(CC4)Cc4ccccc4[C@H]5N)nc3n2)c1Cl has what recorded pIC50?
5.38

Please look up its pIC50: N[C@@H]1c2ccccc2CC12CCN(c1nc3nc(Sc4cccnc4C(F)(F)F)cnc3[nH]1)CC2
5.74

====

target: Tyrosine-protein phosphatase non-receptor type 11 (Homo sapiens, UniProt Q06124); experiment: Binding affinity to N-terminal biotinylated AviTag-G4SG4S-tagged recombinant SHP2 (1 to 525 residues) (unknown origin) by SPR analysis
Sequence (Q06124 whole entry, the tested form may be a part): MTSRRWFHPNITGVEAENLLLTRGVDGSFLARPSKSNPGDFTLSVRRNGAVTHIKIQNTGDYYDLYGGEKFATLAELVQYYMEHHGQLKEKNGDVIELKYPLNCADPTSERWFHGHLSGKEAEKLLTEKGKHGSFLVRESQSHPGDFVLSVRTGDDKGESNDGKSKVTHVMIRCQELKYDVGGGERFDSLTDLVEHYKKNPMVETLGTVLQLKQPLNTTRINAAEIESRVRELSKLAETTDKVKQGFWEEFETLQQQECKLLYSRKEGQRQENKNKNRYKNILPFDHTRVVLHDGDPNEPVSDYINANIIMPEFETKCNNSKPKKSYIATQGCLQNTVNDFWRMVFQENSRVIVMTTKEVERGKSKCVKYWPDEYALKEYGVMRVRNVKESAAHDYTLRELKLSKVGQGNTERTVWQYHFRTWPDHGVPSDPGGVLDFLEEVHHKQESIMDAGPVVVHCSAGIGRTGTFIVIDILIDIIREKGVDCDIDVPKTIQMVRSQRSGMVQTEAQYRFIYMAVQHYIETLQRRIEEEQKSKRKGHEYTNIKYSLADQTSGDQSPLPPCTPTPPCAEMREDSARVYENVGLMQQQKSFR
Measured property: Kd (nM)
Report as a plain number; the unit nM is understood.

Quick check: Kd of N[C@@H]1c2ccccc2CC12CCN(c1nc3nc(Sc4cccnc4C(F)(F)F)cnc3[nH]1)CC2 ?
0.6

====

molecular target: UniProtKB Q06124; experiment: Allosteric inhibition of SHP2 in human KYSE-520 cells assessed as inhibition of ERK phosphorylation incubated for 2 hrs by TR-FRET assay
pEC50: −log10 of the molar value.
Mark label 0 for pEC50 values under 7, and label 1 for everything at or above.

hey, is pEC50 for this one >= 7? N[C@@H]1c2ccccc2CC12CCN(c1nc3nc(Sc4cccnc4C(F)(F)F)cnc3[nH]1)CC2
label 1

I'd appreciate it if you could say whether CNc1nccc(Sc2cnc3[nH]c(N4CCC5(CC4)Cc4ccccc4[C@H]5N)nc3n2)c1Cl has pEC50 at least equal to 7.
label 1

Does the reported pEC50 for CC1(N)CCN(c2nc3ncc(Sc4cccnc4C(F)(F)F)nc3[nH]2)CC1 fall at or above the 7 mark?
label 0

Confirm if pEC50 reported for the molecule N[C@@H]1c2ccccc2CC12CCN(c1nc3nc(Sc4ccncc4Cl)cnc3[nH]1)CC2 is 7 or above.
label 1

For this molecule, is measured pEC50 7 or higher? C[C@@H]1OCC2(CCN(c3nc4nc(Sc5cccnc5C(F)(F)F)cnc4[nH]3)CC2)[C@@H]1N
label 0
